src = ChEMBL document CHEMBL3098061

experiment: Aqueous solubility of the compound at pH 7.4; type: physicochemical
observable: solubility
Param answer (str): number followed by unit.

Query: Kindly indicate its recorded solubility. Item: COc1cc(C(=O)N[C@H]2CCCN(Cc3ccc(Br)cc3)C2)ccc1-n1cnc(C)c1
Response: 8 µg/mL

###

species on record: Rattus norvegicus; assay: Modulation of gamma-secretase in rat fetus primary neurons assessed as inhibition of amyloid beta42 production at 2.5 uM after 1 to 3 days by ELISA
Kindly return TRUE if reported inhibition is no lower than 70%; return FALSE if it is lower.

Query: State whether the measured inhibition reaches 70%, counting equality as reaching it, for COc1cc(C(=O)N[C@H]2CCCN(Cc3cccc(C(F)(F)F)c3)C2)ccc1-n1cnc(C)c1
Response: TRUE

Query: State whether the measured inhibition reaches 70%, counting equality as reaching it, for COc1cc(C(=O)N[C@H]2CCCN(Cc3ccc(C)cc3)C2)ccc1-n1cnc(C)c1
Response: TRUE

Query: State whether the measured inhibition reaches 70%, counting equality as reaching it, for COc1cc(C(=O)NC2CC3CCC(C2)N3Cc2cccc(C(F)(F)F)c2)ccc1-n1cnc(C)c1 (stereo not drawn)
Response: FALSE

Query: State whether the measured inhibition reaches 70%, counting equality as reaching it, for COc1cc(C(=O)N[C@H]2CCCN(C(=O)c3ccc(C(F)(F)F)cc3)C2)ccc1-n1cnc(C)c1
Response: FALSE

Query: State whether the measured inhibition reaches 70%, counting equality as reaching it, for COc1cc(C(=O)NC2CCCN(C(=O)NCc3ccc(C)cc3)C2)ccc1-n1cnc(C)c1 (racemic)
Response: FALSE

Query: State whether the measured inhibition reaches 70%, counting equality as reaching it, for COc1cc(C(=O)N2CCCC(NCc3cccc(C(F)(F)F)c3)C2)ccc1-n1cnc(C)c1 (stereo not drawn)
Response: FALSE

Query: State whether the measured inhibition reaches 70%, counting equality as reaching it, for COc1cc(C(=O)N[C@H]2CCCN(C(=O)c3ccc(C)cc3)C2)ccc1-n1cnc(C)c1
Response: FALSE

Query: State whether the measured inhibition reaches 70%, counting equality as reaching it, for COc1cc(C(=O)NC2CCCN(Cc3ccc(C(F)(F)F)cc3)C2)ccc1-n1cnc(C)c1 (racemic)
Response: TRUE

Query: State whether the measured inhibition reaches 70%, counting equality as reaching it, for COc1cc(C(=O)NC2CCCN(Cc3ccc(Br)cc3)C2)ccc1-n1cnc(C)c1 (racemic)
Response: TRUE

Query: State whether the measured inhibition reaches 70%, counting equality as reaching it, for COc1cc(C(=O)NC2CCCN(Cc3ccc(C)cc3)C2)ccc1-n1cnc(C)c1 (racemic)
Response: TRUE

Query: State whether the measured inhibition reaches 70%, counting equality as reaching it, for COc1cc(C(=O)N[C@H]2CCCN(Cc3ccc(Br)cc3)C2)ccc1-n1cnc(C)c1
Response: TRUE

Query: State whether the measured inhibition reaches 70%, counting equality as reaching it, for COc1cc(C(=O)NC2CCCN(Cc3ccccc3C)C2)ccc1-n1cnc(C)c1 (racemic)
Response: FALSE

Query: State whether the measured inhibition reaches 70%, counting equality as reaching it, for COc1cc(C(=O)NC2CCCN(Cc3cccc(C)c3)C2)ccc1-n1cnc(C)c1 (racemic)
Response: FALSE

Query: State whether the measured inhibition reaches 70%, counting equality as reaching it, for COc1cc(C(=O)N(C)C2CCCN(Cc3cccc(C(F)(F)F)c3)C2)ccc1-n1cnc(C)c1 (stereo not drawn)
Response: FALSE

Query: State whether the measured inhibition reaches 70%, counting equality as reaching it, for COc1cc(C(=O)N2C3CCC2CN(Cc2cccc(C(F)(F)F)c2)C3)ccc1-n1cnc(C)c1
Response: FALSE

Query: State whether the measured inhibition reaches 70%, counting equality as reaching it, for COc1cc(C(=O)N2CC3CC2CN3Cc2cccc(C(F)(F)F)c2)ccc1-n1cnc(C)c1 (stereo not drawn)
Response: FALSE

Query: State whether the measured inhibition reaches 70%, counting equality as reaching it, for COc1cc(C(=O)N[C@H]2CCCN(Cc3ccc(C(F)(F)F)cc3)C2)ccc1-n1cnc(C)c1
Response: TRUE
